src = patent US9670227B2

- system: Mcl-1 protein (UniProtKB primary accession number: Q07820) (Homo sapiens, UniProt Q07820)
- Sequence (Q07820 whole entry): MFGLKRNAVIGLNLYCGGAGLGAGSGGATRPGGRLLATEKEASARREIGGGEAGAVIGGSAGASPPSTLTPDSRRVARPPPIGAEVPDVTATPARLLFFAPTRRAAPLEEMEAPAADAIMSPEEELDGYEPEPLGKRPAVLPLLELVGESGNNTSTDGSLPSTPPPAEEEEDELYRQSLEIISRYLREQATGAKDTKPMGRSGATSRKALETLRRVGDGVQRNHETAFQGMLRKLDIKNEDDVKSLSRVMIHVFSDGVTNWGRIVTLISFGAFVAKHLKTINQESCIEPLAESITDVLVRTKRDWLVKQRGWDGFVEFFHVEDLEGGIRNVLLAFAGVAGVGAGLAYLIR
- test description: Inhibition of Mcl-1 by fluorescence polarisation, Method 1
- Assay type: binding
- condition summary: fluorescence polarisation; Method 1, or Method 2; read-out: IC50 (M) Mcl-1 FP
# Lookup of reported log10 IC50 keyed by entry
observable: log10 IC50 (log10 of the value in M)

> print(dat)
                                    compound                                    system  observable  numeric.value
 1  Cc1c(-c2c(-c3cncs3)sc3ncnc(OC(Cc4ccccc4)C(=O)O)c23)ccc(OCCN2CCN(C)CC2)c1Cl (centres unmarked)  Mcl-1 protein (UniProtKB primary accession number: Q07820) (Homo sapiens, UniProt Q07820)  log10 IC50          -6.89
 2  CCCCn1nccc1COc1ccccc1CC(Oc1ncnc2sc(-c3ccn(C)n3)c(-c3ccc(OCCN4CCN(C)CC4)c(Cl)c3C)c12)C(=O)O (centres unmarked)  Mcl-1 protein (UniProtKB primary accession number: Q07820) (Homo sapiens, UniProt Q07820)  log10 IC50          -8.46
 3  COc1ccc(-c2c(-c3ccc(F)cc3)sc3ncnc(OC(Cc4ccccc4OCc4ccnc(N(C)C)n4)C(=O)O)c23)c(C)c1Cl (centres unmarked)  Mcl-1 protein (UniProtKB primary accession number: Q07820) (Homo sapiens, UniProt Q07820)  log10 IC50          -7.29
 4  CCc1sc2ncnc(OC(Cc3ccccc3)C(=O)O)c2c1-c1ccc(OCCN2CCNC2=O)c(Cl)c1C (centres unmarked)  Mcl-1 protein (UniProtKB primary accession number: Q07820) (Homo sapiens, UniProt Q07820)  log10 IC50          -7.47
 5  CCc1sc2ncnc(OC(Cc3ccccc3)C(=O)O)c2c1-c1cc(Br)c(O)c(Cl)c1C (centres unmarked)  Mcl-1 protein (UniProtKB primary accession number: Q07820) (Homo sapiens, UniProt Q07820)  log10 IC50          -8.33
 6  CCc1sc2ncnc(OC(Cc3ccccc3)C(=O)O)c2c1-c1cc2nc(CN3CCN(C)CC3)oc2c(Cl)c1C (centres unmarked)  Mcl-1 protein (UniProtKB primary accession number: Q07820) (Homo sapiens, UniProt Q07820)  log10 IC50          -6.89
 7  COc1ccccc1CC(Oc1ncnc2sc(-c3csc4ccsc34)c(-c3ccc(OCCN4CCN(C)CC4)c(Cl)c3C)c12)C(=O)O (centres unmarked)  Mcl-1 protein (UniProtKB primary accession number: Q07820) (Homo sapiens, UniProt Q07820)  log10 IC50          -7.36
 8  COc1ccccc1CC(Oc1ncnc2sc(-c3cccc4occc34)c(-c3ccc(OCCN4CCN(C)CC4)c(Cl)c3C)c12)C(=O)O (centres unmarked)  Mcl-1 protein (UniProtKB primary accession number: Q07820) (Homo sapiens, UniProt Q07820)  log10 IC50          -7.13
 9  CCn1nccc1COc1ccccc1CC(Oc1ncnc2sc(-c3ccc(F)c(F)c3)c(-c3ccc(OCCN4CCN(C)CC4)c(Cl)c3C)c12)C(=O)O (centres unmarked)  Mcl-1 protein (UniProtKB primary accession number: Q07820) (Homo sapiens, UniProt Q07820)  log10 IC50          -8.02
10  COc1ccccc1CC(Oc1ncnc2sc(-c3ccccc3Cl)c(-c3ccc(OCCN4CCN(C)CC4)c(Cl)c3C)c12)C(=O)O (centres unmarked)  Mcl-1 protein (UniProtKB primary accession number: Q07820) (Homo sapiens, UniProt Q07820)  log10 IC50          -6.32
11  CCc1sc2ncnc(OC(Cc3ccccc3)C(=O)O)c2c1-c1ccc(OCCCN2CCCC2=O)c(Cl)c1C (centres unmarked)  Mcl-1 protein (UniProtKB primary accession number: Q07820) (Homo sapiens, UniProt Q07820)  log10 IC50          -7.31
12  COc1nccc(COc2ccccc2CC(Oc2ncnc3sc(-c4ccc(F)c(OCCN5CCN(C)CC5)c4)c(-c4ccc(OC)c(Cl)c4C)c23)C(=O)O)n1 (centres unmarked)  Mcl-1 protein (UniProtKB primary accession number: Q07820) (Homo sapiens, UniProt Q07820)  log10 IC50          -8.14
13  CCc1sc2ncnc(OC(Cc3ccccc3)C(=O)O)c2c1-c1cc2ccoc2c(Cl)c1C (centres unmarked)  Mcl-1 protein (UniProtKB primary accession number: Q07820) (Homo sapiens, UniProt Q07820)  log10 IC50          -7.74
14  COc1ccccc1CC(Oc1ncnc2sc(-c3ccc(C4CC4)o3)c(-c3ccc(OCCN4CCN(C)CC4)c(Cl)c3C)c12)C(=O)O (centres unmarked)  Mcl-1 protein (UniProtKB primary accession number: Q07820) (Homo sapiens, UniProt Q07820)  log10 IC50          -7.07
